- Test system: hWB
- METHOD NOTES: IC50 hWB (TNF-α release assay)
- Assay type: cell-based
- CONDITION NOTES: Homo sapiens
The class of a record is decided solely by its measured IC50; consult low bin: < 0.2 µM; mid bin: ≥ 0.2 µM and < 0.7 µM; high bin: ≥ 0.7 µM

• CC(C)c1cc(-c2nnc(CNC(=O)c3cc(C(=O)c4c(F)cc(F)cc4F)c[nH]3)s2)[nH]n1 [Example 25] = low bin
• O=C(NCc1nnc(-c2cccc(F)c2)s1)c1cc(C(=O)c2c(F)cc(F)cc2F)c[nH]1 [Example 9] = high bin
• Cc1cc(-c2nnc(CNC(=O)c3cc(Cc4c(F)cc(F)cc4F)c[nH]3)s2)[nH]n1 [Example 46] = high bin
• O=C(NCc1nnc(-c2cccnc2)s1)c1cc(C(=O)c2c(F)cc(F)cc2F)c[nH]1 [Example 13] = high bin
• O=C(NCc1nnc(-c2ccn[nH]2)s1)c1cc(C(=O)c2c(F)cc(F)cc2F)c[nH]1 [Example 32] = low bin
• O=C(NCc1nnc(-c2ccccn2)s1)c1cc(C(=O)c2c(F)cc(F)cc2F)c[nH]1 [Example 12] = mid bin
• O=C(NCc1nnc(-c2ccc[nH]c2=O)s1)c1cc(C(=O)c2c(F)cc(F)cc2F)c[nH]1 [Example 35] = low bin
• Cc1cc(-c2nnc(CNC(=O)c3cc(C(=O)c4c(F)cc(F)cc4F)c[nH]3)s2)[nH]n1 [Example 20] = mid bin
• O=C(NCc1nnc(-c2cc3ncccn3n2)s1)c1cc(C(=O)c2c(F)cc(F)cc2F)c[nH]1 [Example 29] = high bin
• O=C(NCc1nnc(C2CC2)s1)c1cc(C(=O)c2c(F)cc(F)cc2F)c[nH]1 [Example 4] = mid bin
• O=C(NCc1nnc(-c2n[nH]c3ccccc23)s1)c1cc(C(=O)c2c(F)cc(F)cc2F)c[nH]1 [Example 28] = mid bin
• CC(C)Cc1cc(-c2nnc(CNC(=O)c3cc(C(=O)c4c(F)cc(F)cc4F)c[nH]3)s2)[nH]n1 [Example 26] = low bin
